Hey, just so you know, these numbers are from paper PMC4538796.

Target: GAGAH (GAGA zinc finger/AT-Hook conjugate) (UniProt Q08605)
Experiment: fluorescence anisotropy
Settings: 20 C; 25 nM DNA; Zn2+; apparent; Anisotropy (given for GAGAH): 20 mM Tris-HCl pH 7.5, 100 mM NaCl, 0.02 mM ZnCl2, 20 C, 25 nM TMR-DNA; EMSA: 75 nM dsDNA, rt (GAGAH), 10% native PAGE, 0.5x TBE …
reported metric: pKd
Give bare numbers, as −log10 of the molar value.

May I ask what pKd has been recorded for CGCGTCATAATTGAGAGCGC (double strand) [TMR-AP1hs·AT = TMR-AT·GAGA] ? 7.59

----------
Biological target: GAGAH (GAGA zinc finger/AT-Hook conjugate) (UniProt Q08605)
Assay: fluorescence anisotropy
Conditions: excess calf thymus DNA competitor; Zn2+; Anisotropy (given for GAGAH): 20 mM Tris-HCl pH 7.5, 100 mM NaCl, 0.02 mM ZnCl2, 20 C, 25 nM TMR-DNA; EMSA: 75 nM dsDNA, rt (GAGAH), 10% native PAGE, 0.5x TBE …
reported metric: Kd (nM)
Numbers only, in nM.

May I ask what Kd has been recorded for CGCGTCATAATTGAGAGCGC (double strand) [TMR-AP1hs·AT = TMR-AT·GAGA] ? 42
